Assay: qHTS of pediatric cancer cell lines to identify multiple opportunities for drug repurposing: Primary screen for control Hh wild type fibroblast cells (AID 1347106); note: nearly all actives have a fitted effect of over 55% in size
Conditions: Hh wild-type fibroblast viability, CellTiter-Glo luminescence, 48 h; series mostly up to 46 µM
Results filed as inconclusive are left out. Activity calls are given as the source filed them. Calls come from the whole dose curve; as a rule, active = well fitted cell-killing curve with a large enough effect; inconclusive = small, poorly fitted or top-dose-only effect; inactive = flat fitted curve, though single readings scatter.
Outcomes: yes (1) = active, no (0) = inactive

>  <Molecule>
C=CC(=O)Nc1ccc2ncnc(Nc3ccc(OCc4cccc(F)c4)c(Cl)c3)c2c1

>  <Label>
no (0)

$$$$
>  <Molecule>
CN1CCCN(C(=O)c2cccc(-c3ccc(C=C4C(=O)Nc5ccc(Cl)cc54)o3)c2)CC1

>  <Label>
no (0)

$$$$
>  <Molecule>
O=C(C=Cc1ccc(CN(CCO)CCc2c[nH]c3ccccc23)cc1)NO

>  <Label>
yes (1)

$$$$
>  <Molecule>
C[C@@H](Cc1cc2c(c(C(N)=O)c1)N(CCCO)CC2)NCCOc1ccccc1OCC(F)(F)F

>  <Label>
no (0)

$$$$
>  <Molecule>
COc1cc(C(=O)NC2CCN(C)CC2)ccc1Nc1ncc2c(n1)N(C1CCCC1)CCC(=O)N2C(C)C

>  <Label>
no (0)

$$$$
>  <Molecule>
Nc1cccc2c1C(=O)N(C1CCC(=O)NC1=O)C2=O (centres undefined)

>  <Label>
no (0)

$$$$
>  <Molecule>
CC(C)C[C@H](NC(=O)CNC(=O)c1cc(Cl)ccc1Cl)B1OC(=O)CC(CC(=O)O)(C(=O)O)O1 (some centres undefined)

>  <Label>
yes (1)

$$$$
>  <Molecule>
C[C@@H]1CC[C@@]2(OC1)OC1CC3C4CC=C5CC(O)CCC5(C)C4CCC3(C)C1[C@@H]2C (some centres undefined)

>  <Label>
no (0)

$$$$
>  <Molecule>
Cc1cn([C@@H]2O[C@H](CO)[C@@H](O)[C@H]2F)c(=O)[nH]c1=O

>  <Label>
no (0)

$$$$

====

Assay: qHTS of pediatric cancer cell lines to identify multiple opportunities for drug repurposing: Primary screen for DAOY cells (AID 1347090); note: nearly all actives have a fitted effect of over 55% in size
Conditions: DAOY medulloblastoma viability, CellTiter-Glo luminescence, 48 h; series mostly up to 46 µM
Protocol: Drug repurposing or repositioning has been offered as a strategy for drug development in oncology programs. […] [1] Shen, M et al. Quantitative high-throughput phenotypic screening of pediatric cancer cell lines identifies multiple opportunities for drug repurposing. […] Cells were assayed in growth media at a density of 500-1,000 cells/well. […] After a 15 min incubation at room temperature, samples were analyzed for luminescence intensity using a ViewLux High-throughput CCD imager equipped with clear filters.
Results filed as inconclusive are left out. The source made the active and inactive calls. Calls come from the whole dose curve; as a rule, active = well fitted cell-killing curve with a large enough effect; inconclusive = small, poorly fitted or top-dose-only effect; inactive = flat fitted curve, though single readings scatter.
Outcomes: TRUE for active, FALSE for inactive

>  <Compound>
C=CC[C@@H]1C=C(C)C[C@H](C)C[C@H](OC)[C@H]2O[C@@](O)(C(=O)C(=O)N3CCCC[C@H]3C(=O)O[C@H](C(C)=C[C@@H]3CC[C@H](O)[C@H](OC)C3)[C@@H](C)[C@@H](O)CC1=O)[C@@H](C)C[C@@H]2OC

>  <Label>
FALSE

$$$$
>  <Compound>
O=C(O)C(=O)Nc1cccc(C2=NN=N[N]2)c1

>  <Label>
FALSE

$$$$
>  <Compound>
CC(=O)N1CCN(c2ccc(OCc3nn(C)c(C)c3-c3cccc4c(CCCOc5cccc6ccccc56)c(C(=O)O)n(Cc5cccnc5)c34)cc2)CC1

>  <Label>
TRUE

$$$$
>  <Compound>
Nc1nc(=O)n([C@H]2CSC(CO)O2)cc1F (some centres undefined)

>  <Label>
FALSE

$$$$

====

Test: Quantitative High-Throughput drug screen in 47 multiple myeloma cell lines against the NCATS MIPE library collection: ARD_JJKsccE7 cell viability assay (AID 1918929; note: potency is the fitted concentration of half-maximal effect;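 for viability: 100% = DMSO-only wells and 0% = media-only wells without cells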)
Conditions: ARD myeloma cell line viability, CellTiter-Glo, 48 h; series mostly up to 45.8 µM
Inconclusive results are not listed. The source made the active and inactive calls. The call rests on the fitted dose curve; in most records, active means well fitted cell-killing curve with a large enough effect; inconclusive means small, poorly fitted or top-dose-only effect, or effect the other way; inactive means no such curve, though single readings can be large or run the other way.

>  <Chemical Smiles>
C[N+]1(C)[C@@H]2C[C@@H](OC(=O)C(O)(c3cccs3)c3cccs3)C[C@H]1[C@@H]1O[C@@H]12

>  <Potency>
inactive

$$$$
>  <Chemical Smiles>
COc1ccc(CCC(=O)c2c(O)cc(O[C@@H]3O[C@H](CO)[C@@H](O)[C@H](O)[C@@H]3O[C@@H]3O[C@@H](C)[C@H](O)[C@@H](O)[C@@H]3O)cc2O)cc1O

>  <Potency>
inactive

$$$$
>  <Chemical Smiles>
c1cc(N[C@@H]2CCNC2)nc(-c2cnc3ccc(-c4cn[nH]c4)cn23)c1

>  <Potency>
26400 nM (active)

$$$$
>  <Chemical Smiles>
COC(=O)[C@H](CCCN=C(N)N)NS(=O)(=O)c1ccc(C)cc1

>  <Potency>
inactive

$$$$
>  <Chemical Smiles>
C=C1C[C@@]2(O)O[C@@]3(C[C@H]2C(C)C)[C@H](C)CC[C@H]13

>  <Potency>
inactive

$$$$
>  <Chemical Smiles>
CC(=O)OCC(=O)[C@@]1(O)CC[C@H]2[C@@H]3CCC4=CC(=O)CC[C@]4(C)[C@@H]3C(=O)C[C@@]21C

>  <Potency>
inactive

$$$$
>  <Chemical Smiles>
N#Cc1c(NC(=O)c2cccc3ccccc23)sc2c1CCCC2

>  <Potency>
296 nM (active)

$$$$
>  <Chemical Smiles>
CC(=O)OCC(=O)[C@@]12N=C(C)O[C@H]1C[C@H]1[C@@H]3CCC4=CC(=O)C=C[C@]4(C)[C@@H]3[C@@H](O)C[C@@]12C

>  <Potency>
1050 nM (active)

$$$$

====

Experiment: Quantitative High-Throughput drug screen in 47 multiple myeloma cell lines against the NCATS MIPE library collection: EJM_DSMZ cell viability assay (AID 1918926; note: nearly all actives have a fitted effect of over 30% in size)
Conditions: EJM myeloma cell viability, CellTiter-Glo ATP, 48 h; series mostly up to 45.8 µM
Results filed as inconclusive are left out. Calls of active or inactive are those of the source. Calls come from the whole dose curve; as a rule, active = well fitted cell-killing curve with a large enough effect; inconclusive = small, poorly fitted or top-dose-only effect, or effect the other way; inactive = no such curve, though single readings can be large or run the other way.
Labels: true (1) = active, false (0) = inactive

>  <Chemical Smiles>
CC(C)(O)[C@H]1CC[C@@](C)([C@H]2[C@@H](O)C[C@@]3(C)[C@@H]4C[C@H](O[C@@H]5O[C@H](CO)[C@@H](O)[C@H](O)[C@@H]5O)[C@H]5C(C)(C)[C@@H](O[C@@H]6OC[C@@H](O)[C@H](O)[C@@H]6O)CC[C@@]56C[C@@]46CC[C@]23C)O1

>  <Label>
false (0)

$$$$
>  <Chemical Smiles>
CC(C)(N)c1ccc(-c2nc3ccccc3nc2-c2ccccc2)cc1

>  <Label>
true (1)

$$$$
>  <Chemical Smiles>
O=C1NC(=O)C(=Cc2ccc3nccc(-c4ccncc4)c3c2)S1

>  <Label>
true (1)

$$$$

====

Experiment: Quantitative High-Throughput drug screen in 47 multiple myeloma cell lines against the NCATS MIPE library collection: Karpas25_ECACC cell viability assay (AID 1918968; note: nearly all actives have a fitted effect of over 35% in size)
Settings: Karpas25 myeloma viability, CellTiter-Glo ATP, 48 h; series mostly up to 45.8 µM
Records with an inconclusive call do not appear. The source made the active and inactive calls. Calls come from the whole dose curve; as a rule, active = well fitted cell-killing curve with a large enough effect; inconclusive = small, poorly fitted or top-dose-only effect, or effect the other way; inactive = no such curve, though single readings can be large or run the other way.
Outcome codes: 1 for active, -1 for inactive

>  <Compound>
Cc1cc(O)c2c(c1)C(=O)c1cccc(O)c1C2=O

>  <Label>
-1

$$$$
>  <Compound>
CCCCC(=O)O[C@]1(C(=O)CO)[C@@H](C)C[C@H]2[C@@H]3CCC4=CC(=O)C=C[C@]4(C)[C@@]3(F)[C@@H](O)C[C@@]21C

>  <Label>
1

$$$$
>  <Compound>
CN(C)c1ccc2cc(C(=O)N[C@@H](CCCN=C(N)CCl)C(=O)NCc3ccccc3)ccc2c1

>  <Label>
1

$$$$
>  <Compound>
COc1cc(C)c(Sc2cnc(NC(=O)c3ccc(CNC(C)C(C)(C)C)cc3)s2)cc1C(=O)N1CCN(C(C)=O)CC1 (configuration not stated)

>  <Label>
1

$$$$
>  <Compound>
COc1cccc2c1C(=O)c1c(O)c3c(c(O)c1C2=O)C[C@@](O)(C(C)=O)C[C@H]3O[C@H]1C[C@H](N)[C@H](O)[C@H](C)O1

>  <Label>
1

$$$$
>  <Compound>
C[C@@]12C(=O)OC(=O)[C@@]1(C)C1CCC2O1

>  <Label>
1

$$$$
>  <Compound>
Cc1onc(-c2ccccc2)c1C(=O)N[C@@H]1C(=O)N2[C@@H](C(=O)O)C(C)(C)S[C@@H]12

>  <Label>
-1

$$$$
>  <Compound>
COc1cc(C[C@@H](CO)[C@H](CO)Cc2ccc(O)c(OC)c2)ccc1O

>  <Label>
1

$$$$
>  <Compound>
C[C@@]12C[C@@]3(O)O[C@@H](O1)[C@]1(COC(=O)c4ccccc4)[C@@H]3C[C@@]12O[C@@H]1O[C@H](CO)[C@@H](O)[C@H](O)[C@@H]1O

>  <Label>
-1

$$$$
>  <Compound>
Cc1ccc2nc(NCCN)c3ncc(C)n3c2c1

>  <Label>
1

$$$$
>  <Compound>
CC1=C(C(=O)Nc2cc3cn[nH]c3cc2F)C(c2ccc(Cl)cc2F)N=C(c2ccnc(Cl)c2)N1 (configuration not stated)

>  <Label>
1

$$$$
>  <Compound>
CC(C)Oc1ccc(C(=O)N[C@H](CNC(=O)CN(C)C)Cc2ccc(-c3cn4cccc([C@H](C)O)c4n3)cc2)cc1Cl

>  <Label>
1

$$$$
>  <Compound>
COc1ccnc2[nH]cc(C(=O)C(=O)N3CCN(C(=O)c4ccccc4)C[C@@H]3C)c12

>  <Label>
-1

$$$$
>  <Compound>
COc1cc(C(=O)NC2CCN(C)CC2)ccc1Nc1ncc2c(n1)N(C1CCCC1)CCC(=O)N2C(C)C

>  <Label>
1

$$$$
>  <Compound>
C=C1CCC2[C@](C)(CO)C(O)CC[C@]2(C)C1CC=C1C(=O)OCC1O (some centres not stated)

>  <Label>
-1

$$$$
>  <Compound>
Cn1c(Nc2ccc(C(F)(F)F)cc2)nc2cc(Oc3ccnc(-c4ncc(C(F)(F)F)[nH]4)c3)ccc21

>  <Label>
1

$$$$
>  <Compound>
CCN(CC)Cc1ccc2cc(COC(=O)Nc3ccc(C(=O)NO)cc3)ccc2c1

>  <Label>
1

$$$$

Data origin, for the record: PubChem BioAssay (NCATS)
